Please go through the items and note down their apparent KD of MS2 coat protein.
tested on: MS2 coat protein; test: apparent KD of MS2 coat protein; designed switch direction (-1 OFF switch, 1 ON switch): 1; higher = weaker reporter binding; details: input ligand: microRNA oligo, concentration not stated
# number only, unit µM dropped from output

Note to self: apparent KD of MS2 coat protein recorded for AAAGGAUGAUGUUACAUGAGGAUCACCCAUGUAGUGAUAACUAAGGAUAUCUGUUAAACAAGUUAAGAGAAGGUAGGAUCAUUA [AK SSNG3-V2-8] (Eterna round: R96, puzzle: Same State NG 3) was 0.0356

Note to self: apparent KD of MS2 coat protein recorded for GAGAGAGGGUGAGGAUAUUGAGUAAUAAUGAUACAAGAAGGCACAGACAUGAGGAUCACCCAUGUGGGAAUAAUCCAGAGAGAG [Parity 6 - Jieux - Same State NG 1] (Eterna round: R96, puzzle: Same State NG 1) was 0.153

Note to self: apparent KD of MS2 coat protein recorded for GAGCCAGUCCGAGGAUAUUCAACAUGAGGAUCACCCAUGUAGGCUCAGAAAAGAAAAGAGCCUUGGGAGAAGGCGGACUGGCUC [Xeonanisa<<7] (Eterna round: R96, puzzle: Same State NG 2) was 0.00901

Note to self: apparent KD of MS2 coat protein recorded for GCGAUAUGAUGUUACAUGAGGAUCACCCAUGUAGCGAUAGCUAAGGAUAUUUGAAAGGGAGGAGAAGAGAAGGUAGGAUCACGC [AK SSNG3-V2-22.2] (Eterna round: R96, puzzle: Same State NG 3) was 0.0186

Note to self: apparent KD of MS2 coat protein recorded for UAUUUAAUCAUAGGAUAUAGUGUGUAAUUUGGACUAGAAGGAUGUAACAUGAGGAUCACCCAUGUGGUAAAUGGGAUACAUUCC [JR_SSNG1_Sub099] (Eterna round: R96, puzzle: Same State NG 1) was 0.0919

Note to self: apparent KD of MS2 coat protein recorded for ACAUGACAUGAGGAUCACCCAUGUCGAUAAAAGCAAGGAUAUGGGCCCGAGUCGUUCGGACCAGAAGGUGCGUCUC [Orso] (Eterna round: R96, puzzle: Same State 1) was 0.0163

Note to self: apparent KD of MS2 coat protein recorded for GUGGUCAGACAUGAGGAUCACCCAUGUGGAAUAAAUAAGGAAGAGGAUAUCGAAUAUAGGAUAUACGAGAAGGUUUGGUUGGUG (Eterna round: R96, puzzle: Same State NG 3) was 0.0775

Note to self: apparent KD of MS2 coat protein recorded for UAACGCGCAUGCAAGGAUAUGUGCAGAGCUACAUGAGGAUCACCCAUGUGGUUAUGCUAUUGAAAACAGAAGGUGCCCUCGCUCA [Ceties] (Eterna round: R96, puzzle: Same State 2) was 0.0164

Note to self: apparent KD of MS2 coat protein recorded for GCGGAGAGGUAAGGAUAUCCAUGGAAGACACAUGAGGAUCACCCAUGUGGGAGGGAAACCAGGAGGGAGAAGGUACCGGGACGC [AK SSNG2-V2-21] (Eterna round: R96, puzzle: Same State NG 2) was 0.0104

Note to self: apparent KD of MS2 coat protein recorded for GCCAUCGCAUGAGGAUAUGGCACCGUUUCGGUGCCAGAAGGCAUGUCGUAAGACAUGAGGAUCACCCAUGUAGUUAAGAUGGCA [JL Fiskers NG1ss - 33 mod 8] (Eterna round: R96, puzzle: Same State NG 1) was 0.101

Note to self: apparent KD of MS2 coat protein recorded for GUAGCAUACCGAGGAUAUUCAAACCGGAAACGGACAUGAGGAUCACCCAUGUGGCGAAAGCCUUGGGAGAAGGCGGAAUGCUAC [Xeonanis - 20 Mod76] (Eterna round: R96, puzzle: Same State NG 2) was 0.0217

Note to self: apparent KD of MS2 coat protein recorded for UUGAAGAAUUAAGGAUAUUGAUUACAUAUGUUUAACAUGAGGAUCACCCAUGUGGGUUGCGGUAUCGAGAAGGUAAAUUAAUAG [Mat - same State NG 2 - JL mod - D81] (Eterna round: R96, puzzle: Same State NG 2) was 0.181

Note to self: apparent KD of MS2 coat protein recorded for UAUCCAUAGAUAGGAUAUUAGAGAACAUGAGGAUCACCCAUGUUUGGCUUGGUUUUAAGCCAAUCUAAGAAGGAUCUUGAUGAA [SameState NG2 #10] (Eterna round: R96, puzzle: Same State NG 2) was 0.0665

Note to self: apparent KD of MS2 coat protein recorded for UAGUGCAUUAGAGGAUAUUCUUACGACACGAGUAAGACAUGAGGAUCACCCAUGUCGUGACAUGGGAAGAAGGCUGAUGUGCUA [Omei SS(NG)2 Bv6] (Eterna round: R96, puzzle: Same State NG 2) was 0.0271

Note to self: apparent KD of MS2 coat protein recorded for GUUACAUGAGGAUCACCCAUGUAUGUGUGGGAGUAAGUGUCUUAGGAUAUCUAUUAUUUAAUUGAAGAGAAGGAAGAUUGUUGU [JMF's solution 26] (Eterna round: R96, puzzle: Same State NG 3) was 0.095

Note to self: apparent KD of MS2 coat protein recorded for GUGGUCAGACAUGAGGAUCACCCAUGUGGAAUAAAUAACGACUAGGAUAUAUAAUAUAGGAUAUAAUAGAAGGAGUGAUUGGUG (Eterna round: R96, puzzle: Same State NG 3) was 0.0495

Note to self: apparent KD of MS2 coat protein recorded for AAAGAAAACAUAGGAUAUGUAACAUGAGGAUCACCCAUGUAUACCUCGUAAGAGAUGAUGGAUGGACAGAAGGAUGAUCUCAGG [Default title] (Eterna round: R96, puzzle: Same State NG 2) was 0.111

Note to self: apparent KD of MS2 coat protein recorded for UAUUCAUUCAGAGGAUAUUGUUUAUCUCUAUUUCAAGAAGGCUGAUUUUACUACUUACUUAUGAAACAUGAGGAUCACCCAUGU [JR_SSNG1_Sub020] (Eterna round: R96, puzzle: Same State NG 1) was 0.0187

* * *

Please go through the items and note down their apparent KD of MS2 coat protein.
system: MS2 coat protein; test: apparent KD of MS2 coat protein; higher = weaker reporter binding; conditions: Eterna round: R101; input ligand: none
# number only, unit nM dropped from output

Note to self: apparent KD of MS2 coat protein recorded for CGCUAUAACAUGAGGAUCACCCAUGUAUACAUGGAAUUGACGUAGGAUAUGCAGUUGAUUAUAGUGCAGAAGGACGGUAUAGCG [JR #DistanceFar #Hairpin #Noisy #NP SSNG3 Sub069] (puzzle (switch architecture): Same State NG 3) was 101

Note to self: apparent KD of MS2 coat protein recorded for GGAGACCUUACAGGAUAUGCUGGACUUUGUCCAGCAGAAGGGUGAAAACAUGAGGAUCACCCAUGUAUGGUCUCCAAAUUUAAU [jl-ssng1-3.02 #GU_VS_GC_SWITCHING] (puzzle (switch architecture): Same State NG 1) was 19.1

Note to self: apparent KD of MS2 coat protein recorded for CGAUAUAUGAAGGGCAAACGCCCACAUGAGGAUCACCCAUGUAGAAGGCGAUCCGCAACGCGGAUCGAGGAUAUAUAGUAUACA [#my 15th design] (puzzle (switch architecture): Inverted Exclusion NG 3) was 11.2

Note to self: apparent KD of MS2 coat protein recorded for AAUAAUUCUUAAGGAUAUGACUCCGAAACGGAGUCAGAAGGUGAGGAUCACCCACCUAGCUCAGCGUCGAAAGACGCUGAGCAA [#SharedSequence ExNG1 - 31] (puzzle (switch architecture): Exclusion NG 1) was 10.5

Note to self: apparent KD of MS2 coat protein recorded for AUGGAUAUCACAGGAUAUGAUAUGGAUACCAUAUCAGAAGGGUGACCCAUCCUAUGUAAAUACAUGAGGAUCACCCAUGUGUCC [Sara'sguidence+#HughScoreProbStacks#11] (puzzle (switch architecture): Same State NG 1) was 640

Note to self: apparent KD of MS2 coat protein recorded for GCAGCUAAUGCAGGAUAUCAGCACGUGUAGUGCUGAGAAGGGCACAUGAGGAUCACCCAUGUGAUCAAUUAAUGUUAAUGCUGC [ExNG1 1 #C-Saturation] (puzzle (switch architecture): Exclusion NG 1) was 6.82

Note to self: apparent KD of MS2 coat protein recorded for CGAAGUCCGUAGAAGGGUGACAUGAGGAUCACCCAUGUGCGAGCCGAUGGAGUCAGCGGCUCGCCACAGGAUAUACGGAGCACG [Isdiesrama] (puzzle (switch architecture): Inverted Same State NG 2) was 180

Note to self: apparent KD of MS2 coat protein recorded for UAUUAUAUAUAGAAGGACAUGAGGAUCACCCAUGUCGCCGGGCCCGGGAAACCGGGCCCGGCCAUGUAGGAUAUAUAUAUGGUA [#This is a good prank 8] (puzzle (switch architecture): Inverted Exclusion NG 2) was 6.38
